Values compiled from the supplement of paper PMC6555819.

- System: PPARg:RXRa DBDmut IVT, anti-RXR (DBD mutation: RXRa K156A/R161A, NR concentration 270 nM, RXRa partner concentration 90 nM)
- Procedure details: PBM binding z-score (relative to random genomic background probes); higher = stronger binding; sequences stand for … in GC…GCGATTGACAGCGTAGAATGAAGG
Readout label: PBM binding z-score

# Monomer sequence, Readout label, Reported measurement
measured = [
    ("CAAATTAGGTCACAGAGGTCAAAGTCCGTGCGTA", "PBM binding z-score", 8.01),
    ("GCTACTTGGTCAGTAAAAGGTCACACACCGGTCG", "PBM binding z-score", 1.59),
    ("TCTTGTAGAACAAAGGTTAAGAAAGCCGAAGCCT", "PBM binding z-score", 2.26),
    ("GCTGCTAGGTCAACTGATGGGCAGCTAAAGCTCG", "PBM binding z-score", 4.79),
    ("CAGACTAGGTCACGAAAGGTCAAAGTCGAATGAC", "PBM binding z-score", 7.63),
    ("GATACAGGGTCAGCTAGAGGCCAGAGTATGGAAA", "PBM binding z-score", 1.03),
    ("CGTCGAAGGTCAGAGAGGTCAGTGAATGCCGAGT", "PBM binding z-score", 2.6),
    ("ATCTCTAGGTAAGACTCAGTTAAGTGAAGAACGC", "PBM binding z-score", 1.7),
    ("ATATGTAGGTTAGATCCGGGTCATTCAGGCTATG", "PBM binding z-score", 6.3),
    ("TTACCAAGGTGAAGATCGTTGATCCCTCTGTAGA", "PBM binding z-score", 1.37),
    ("TCTCGGAGGACACAAAAGGTCAGAGCTCGACATC", "PBM binding z-score", 1.53),
    ("TAGCCTAGGTCAGATCGGGACAGTATACGCTATA", "PBM binding z-score", 0.601),
    ("ATCTCTAGGTAATGTTCAGTGAAAGATCGATAGA", "PBM binding z-score", 2.57),
    ("GGAACGAGGGTAAGTTGATAGCAGAGTTTGATGG", "PBM binding z-score", 1.59),
    ("TCTCGGAAGACACGAAGGTCAGAGCTTTCCAGAG", "PBM binding z-score", 1.64),
    ("CCGACTGGGGCATAAGGTTACCAAAAGCCAGCCC", "PBM binding z-score", 2.7),
    ("CTTACTGGGCCAAAAAGGTCATTGATGCCGATAA", "PBM binding z-score", 6.06),
    ("CGTCCAGGGTCAATGCTAGGTCAGTGAAAGCATT", "PBM binding z-score", 1.7),
    ("AGTCAAAGTTCCTCTAGGTAACGTAAGATATGCT", "PBM binding z-score", -0.227),
    ("AATACAGGGTCATCGTAGGCCAGAGTTCGCACAG", "PBM binding z-score", 2.96),
    ("AGAATGAGGTTACCAAAGATCAGGGTAACGCTTG", "PBM binding z-score", 4.2),
    ("ATCTCTAGGTAAAGTTTAGTGAAAGATCGATAGA", "PBM binding z-score", 2.35),
    ("TGAATGAGGTTAAAGATCATGGAACGTGGCGTCG", "PBM binding z-score", 1.79),
    ("GCTATGAGTTGAAAGGGCAACCGAATGATTCTCG", "PBM binding z-score", 0.245),
    ("ATCTCTAGGTAAGACTCAGTTCAGTTAAGAACGC", "PBM binding z-score", 2.13),
    ("CATACAGGGTCAGCTAGGCCATAGTAGGGACGGC", "PBM binding z-score", 0.879),
    ("TGAATGAGGTTATAGGATCAGGGAACGTTGCAAA", "PBM binding z-score", 1.16),
    ("CGTCCAAGGTCAGCAGGTCAATGAAAGCGACGTG", "PBM binding z-score", 3.22),
]
